Assay: Average particle size (ζ-Average) and PDI by dynamic light scattering (Zetasizer Nano ZSP)
Format: physicochemical
Conditions: F7siRNA-loaded LNP, 50:10:38.5:1.5, N/P ratio 6
Item-by-item account of PDI

| compound | PDI |
| --- | --- |
| CCCCCCCCCCCCCCC(C)C(=O)OCCCCCCC(O)(CCCCCCOC(=O)C(C)CCCCCCCCCCCCCC)CCCCN(CCC)CCC (stereo not shown) [CL4F 16-1] | 0.092 |
| CCCCCCCCC(CCCCC)C(=O)OCCCCCCC(O)(CCCCCCOC(=O)C(CCCCC)CCCCCCCC)CCCCN(CCC)CCC (stereo not shown) [CL4F 10-5] | 0.006 |
| CCCCCCCCC(CCCC)C(=O)OCCCCCCC(O)(CCCCCCOC(=O)C(CCCC)CCCCCCCC)CCCCN(CCC)CCC (stereo not shown) [CL4F 10-4] | 0.021 |
| CCCCCCCC(CCCCC)C(=O)OCCCCCCC(O)(CCCCCCOC(=O)C(CCCCC)CCCCCCC)CCCCN(CCC)CCC (stereo not shown) [CL4F 9-5] | 0.032 |
| CCCCCC(CCCCC)C(=O)OCCCCCCC(O)(CCCCCCOC(=O)C(CCCCC)CCCCC)CCCCOC(=O)C1CCN(C)CC1 [CL15F 7-5] | 0.039 |
| CCCCCCCCCCCCCCCC(=O)OCCCCCCC(O)(CCCCCCOC(=O)CCCCCCCCCCCCCCC)CCCCOC(=O)C1CCN(C)CC1 [CL15F 16-0] | 0.238 |
| CCCCCCCCCCCC(CCC)C(=O)OCCCCCCC(O)(CCCCCCOC(=O)C(CCC)CCCCCCCCCCC)CCCCOC(=O)C1CCN(C)CC1 (stereo not shown) [CL15F 13-3] | 0.081 |

----------
Assay: Storage stability of FlucmRNA-loaded LNP at −80, 5, 25 and 40° C.
Assay type: physicochemical
Settings: maximum storage period 1 week
Item-by-item account of period for which quality remained good, −80° C.
endpoint.label: period for which quality remained good, −80° C. (week)

| compound | observed |
| --- | --- |
| CCCCCCCCCC(CCCCCCCCC)C(=O)OCCCCCCC(O)(CCCCCCOC(=O)C(CCCCCCCCC)CCCCCCCCC)CCCCN(CCC)CCC [CL4F 11-9] | 1 |
| CCCCCCCCC(CCCCC)C(=O)OCCCCCCC(O)(CCCCCCOC(=O)C(CCCCC)CCCCCCCC)CCCCOC(=O)C1CCN(C)CC1 (stereo not drawn) [CL15F 10-5] | 1 |
| CCCCCCCCCC(CCCCC)C(=O)OCCCCCCC(O)(CCCCCCOC(=O)C(CCCCC)CCCCCCCCC)CCCCOC(=O)C1CCN(C)CC1 (stereo not drawn) [CL15F 11-5] | 1 |
| CCCCCCCCC(CCCCCCCC)C(=O)OCCCCCCC(O)(CCCCCCOC(=O)C(CCCCCCCC)CCCCCCCC)CCCCN(CCC)CCC [CL4F 10-8] | 1 |
| CCCCCCCCCCCCC(CC)C(=O)OCCCCCCC(O)(CCCCCCOC(=O)C(CC)CCCCCCCCCCCC)CCCCN(CCC)CCC (stereo not drawn) [CL4F 14-2] | 0 |
| CCCCCCCC(CCCCC)C(=O)OCCCCCCC(O)(CCCCCCOC(=O)C(CCCCC)CCCCCCC)CCCCN(CCC)CCC (stereo not drawn) [CL4F 9-5] | 1 |

These entries and their values trace back to patent US12458605B2.
